Reference source: ChEMBL document CHEMBL1201862

test system: ACHN; test: NCI tumour cell line growth inhibition, 48 h
Activity calls are given as the source filed them. Rule as the data show it: active = GI50 up to about 1.1 µM and inactive = higher. Numbered stars: 1 amine (or outer) side, 2 acyl side, 3 side chain; on linkers, the order of the positions; unused ones are H or OH. Square brackets hold non-standard residues; d marks the D form. Peptide text beside a SMILES is read from it. X55 = CC[C@H](C)[C@H](OC(=O)[C@@H](C)[C@@H](CC)N[*:1])C(=O)[*:2]; X31 = C[C@H](N[*:1])C(=O)C(C)(C)C(=O)[*:2]; NMeY = CN[C@@H](Cc1ccc(O)cc1)C(=O)O; NMeL = CN[C@@H](CC(C)C)C(=O)O; NMeV = CN[C@H](C(=O)O)C(C)C
Examples of molecules with documented GI50 follow.

molecule	GI50
O=C1Oc2cc3c(c4cccc1c24)OCN(c1ccccc1)C3	> 100 µM (inactive)
c1csc(-c2nnc(C34CC5CC(CC(C5)C3)C4)o2)c1	33.3 µM (inactive)
COc1ccc(C2CCC(Cl)(OC)CC2C=O)cc1 (stereo not drawn)	95.9 µM (inactive)
CNC1NC(=O)c2ccccc2N1Cc1ccc(F)cc1 (stereo not drawn)	> 100 µM (inactive)
COCCOCOC(C)(C)[C@H](CCO)O[Si](c1ccccc1)(c1ccccc1)C(C)(C)C	5.68 µM (inactive)
Brc1ccccc1/C=C\C1(c2ccccc2)OCCO1	8.51 µM (inactive)
O=C(NN1C(=O)CS(=O)(=O)C1c1ccc(C(F)(F)F)cc1)c1ccncc1 (stereo not drawn)	> 100 µM (inactive)
CC[C@H](C)[C@@H]1OC(=O)[C@@H](C)[C@@H](CC)NC(=O)[C@H](C)NC(=O)C(C)(C)C(=O)[C@H](C)NC(=O)[C@H](Cc2ccc(OC)cc2)N(C)C(=O)[C@H](C(C)C)N(C)C(=O)CNC(=O)[C@H](CC(C)C)N(C)C(=O)CNC1=O [DOLASTATIN 11] (cyclo(A[X55]G[NMeL]G[NMeV][NMeY](Me)[X31]))	0.0327 µM (active)

* * *

test system: M14; test: NCI tumour cell line growth inhibition, 48 h
Active and inactive are the calls of the source. No stated cut-off is given here; in the data, active = GI50 up to about 1.1 µM and inactive = higher.
Possible outcomes: YES for active, NO for inactive

compound	classLabel
C[C@@H]1C[C@@H](O)[C@]2(O)O[C@@H]3C[C@@]4(C=O)[C@@H](CC[C@@H]5[C@@H]4CC[C@]4(C)[C@@H](C6=CC(=O)OC6)CC[C@]54O)C[C@H]3O[C@@H]2O1 [CALACTIN]	YES
CCOC(=O)Cc1csc(N/C=C2/C(=O)Oc3ccccc3C2=O)n1	NO
CNC1NC(=O)c2ccccc2N1Cc1ccc(F)cc1 (stereo unspecified)	NO
Nc1ccc2c(c1)C(=O)c1ccc(F)cc1-2	NO
CCCCCCCCCCCC(=O)C1=C(O)CC(O)CC1=O (stereo unspecified)	NO
C#Cc1cc(CN(CC(=O)OC(C)(C)C)CC(=O)OC(C)(C)C)nc(CN(CC(=O)OC(C)(C)C)CC(=O)OC(C)(C)C)c1	NO
COc1ccc(-c2c(C#N)c(NC(=S)NC(=O)c3ccccc3)nc3c2CCCC3)cc1OC	NO
CN(C)c1ccc2c(SCC(=O)OCC(=O)[C@@]3(O)CC[C@H]4[C@@H]5CCC6=CC(=O)C=C[C@]6(C)[C@H]5C(=O)C[C@@]43C)c3ccc(N(C)C)cc3nc2c1	NO
C/C(=C\C(=O)O)C(=O)N(C)c1ccccc1I	NO
CNC(=O)OCc1nc(SSc2nc(COC(=O)NC)c(COC(=O)NC)n2C)n(C)c1COC(=O)NC	NO
O=C1[C@@H]2C(c3ccc(Cl)cc3Cl)=NO[C@@H]2C(=O)N1c1ccc(Cc2ccc(N3C(=O)[C@H]4C(c5ccc(Cl)cc5Cl)=NO[C@H]4C3=O)cc2)cc1	NO
CCN(CC)c1ccc(C(=O)c2ccccc2C(=O)O)c(O)c1	NO
COc1ccc(SCc2cc(OC)ccc2OC)cc1	NO
N#CCOc1cccc(C2(N3CC=CCC3)CCCCC2)c1	NO
CCOC(=O)/C(C#N)=C/Nc1c(C)n(C)n(-c2ccccc2)c1=O	NO
O=C(Nc1c(O)[nH]c(=S)[nH]c1=O)c1ccccn1	NO
